Source listed as the supplement of paper PMC10724198.

# Tested on: Saccharomyces cerevisiae
# assay method text: protein stability index of tFT-peptide fusion (C-terminal peptide) (PSI (0-1 scale)); higher = more stable (slower turnover)
# reported conditions: genetic background: wild type; temperature: 30 C
Catalogue of sequences with associated protein stability index
Form: value (number only, do not type unit).

sequence_data="ININDLMVNRNH [YOR389W C-terminal 12 aa]" measurement=0.7
sequence_data="GFASLIKDFKKK [NET1 C-terminal 12 aa]" measurement=0.685
sequence_data="KHAFMGTLKKDL [RPL3 C-terminal 12 aa]" measurement=0.686
sequence_data="QEQQNLRQKQPN [YBL029C-A C-terminal 12 aa]" measurement=0.709
sequence_data="KRLGKKTVVTSR [DCC1 C-terminal 12 aa]" measurement=0.717

Input line: Please give the measured protein stability index for this sequence: SISHPENKVLHK [YNL195C C-terminal 12 aa]
Output line: 0.699

Input line: Same thing, different sequence: PTQPTVSNKKNN [GPI14 C-terminal 12 aa]
Output line: 0.68

Input line: Same thing, different sequence: FFSKKRPNIDSK [YOL037C C-terminal 12 aa]
Output line: 0.684

Input line: Same thing, different sequence: QLAIALSLSEIN [UFO1 C-terminal 12 aa]
Output line: 0.714

Input line: Same thing, different sequence: VNELVELMTQSA [SEC18 C-terminal 12 aa]
Output line: 0.695

Input line: Same thing, different sequence: RSIRWFREAGGK [SKI8 C-terminal 12 aa]
Output line: 0.72

Input line: Same thing, different sequence: QDEDEDEDIEMQ [RAD3 C-terminal 12 aa]
Output line: 0.705
